Test system: HBV
Test: HBV-DNA antiviral assay using HepG2.117 cells
Format: cell-based, genotype D HBV
Settings: intracellular HBV DNA by qPCR, 3 days incubation
Procedure: The following assay procedure describes the HBV antiviral assay, using HepG2.117 cells, which carry a stably integrated genotype D HBV genome under the control of a Tet-off promoter, and intracellular HBV DNA quantification as endpoint. Cell viability is assessed in parallel by measuring the intracellular ATP content using ATPlite (Perkin Elmer). […] On day 4, cell viability was assessed using ATPlite and cell lysates were prepared for HBV DNA extraction and subsequent quantification by qPCR. […]
pEC50: −log10 of the molar value.
quantityMeasured: pEC50

[Q] Item under review: "O=C(c1ccc(Br)c(Cl)c1)N1CCc2c(n3nccc3n(-c3ccccc3)c2=O)C1" . Reported pEC50?
[A] 5.30 to 6.30

---

test system: HBV; experiment: HBV-DNA antiviral assay using HepG2.117 cells; assay type: cell-based, genotype D HBV; conditions: intracellular HBV DNA by qPCR, 3 days incubation
pEC50: −log10 of the molar value.
A collection of compounds and their measured pEC50

[Q] pEC50 lookup needed for "CC(C)NC(=O)c1cnn2c3c(c(=O)n(-c4ccccc4)c12)CCN(C(=O)c1ccc(Cl)c(Cl)c1)C3" , thanks.
[A] < 5.30

[Q] Try this compound too: "COc1ccc(-n2c(=O)c3c(n4ncc(Nc5ccccc5)c24)CN(C(=O)c2ccc(Br)c(Cl)c2)CC3)cc1"
[A] ≥ 7.00

---

system: HBV; assay: HBV-DNA antiviral assay using HepG2.117 cells; assay type: cell-based, genotype D HBV; conditions: intracellular HBV DNA by qPCR, 3 days incubation
pEC50: −log10 of the molar value.
quantityMeasured: pEC50

Take a look at these entries with their results.
O=C(c1ccc(Cl)c(Cl)c1)N1CCc2c(n3ncc(NCc4ccccc4)c3n(-c3ccccc3)c2=O)C1 | 5.30 to 6.30
COc1ccc(-n2c(=O)c3c(n4ncc(NC(C)=O)c24)CN(C(=O)c2ccc(Cl)c(Cl)c2)CC3)cc1 | < 5.30

With those in mind, consider the next compound.
[Q] Which measured pEC50 value corresponds to "Cc1cc2n(-c3ccccc3)c(=O)c3c(n2n1)CN(C(=O)c1ccc(Br)c(F)c1)CC3" ?
[A] < 5.30

---

System: HBV
Experiment: HBV-DNA antiviral assay using HepG2.117 cells
Type: cell-based, genotype D HBV
Conditions: intracellular HBV DNA by qPCR, 3 days incubation
Protocol: The following assay procedure describes the HBV antiviral assay, using HepG2.117 cells, which carry a stably integrated genotype D HBV genome under the control of a Tet-off promoter, and intracellular HBV DNA quantification as endpoint. Cell viability is assessed in parallel by measuring the intracellular ATP content using ATPlite (Perkin Elmer). […] On day 4, cell viability was assessed using ATPlite and cell lysates were prepared for HBV DNA extraction and subsequent quantification by qPCR. […]
pEC50: −log10 of the molar value.
quantityMeasured: pEC50

Use the examples below as a reference point.
CNC(=O)c1ccc(-n2c(=O)c3c(n4ncc(Cc5ccccc5)c24)CN(C(=O)c2ccc(Br)c(Cl)c2)CC3)cc1 | ≥ 7.00
CNC(=O)c1ccc(-n2c(=O)c3c(n4ncc(Cc5ccccc5)c24)CN(C(=O)c2ccc(Br)c(Cl)c2)C(C)C3)cc1 (single isomer, unassigned) [Compound 71] | ≥ 7.00
CNC(=O)c1ccc(-n2c(=O)c3c(n4ncc(Cc5ccc(OC(F)(F)F)cc5)c24)CN(C(=O)c2ccc(Br)c(Cl)c2)CC3)cc1 | ≥ 7.00
O=C(c1ccc(Br)c(Cl)c1)N1CCc2c(n3nc(Cc4ccccc4)cc3n(-c3ccccc3)c2=O)C1 | < 5.30
COc1ccc(-n2c(=O)c3c(n4ncc(Cc5ccccc5)c24)CN(C(=O)c2ccc(Cl)c(Cl)c2)CC3)cc1 | 6.30 to 7.00

[Q] Form entry - test system: HBV; read-out: pEC50; compound: "COc1ccc(-n2c(=O)c3c(n4ncc(NCc5ccccc5)c24)CN(C(=O)c2ccc(Cl)c(Cl)c2)CC3)cc1"
[A] ≥ 7.00

[Q] Try "O=C(c1ccc(Br)c(Cl)c1)N1CCc2c(n3nccc3n(Cc3ccccc3)c2=O)C1" next.
[A] 5.30 to 6.30

[Q] Also "COc1ccc(-n2c(=O)c3c(n4ncc(NC(=O)C(C)C)c24)CN(C(=O)c2ccc(Cl)c(Cl)c2)CC3)cc1" , if possible.
[A] < 5.30

[Q] Likewise for CNC(=O)c1ccc(-n2c(=O)c3c(n4ncc(Cc5ccccc5)c24)CN(C(=O)c2ccc(Br)c(Cl)c2)C(C)C3)cc1 (single isomer, unassigned) [Compound 72] ?
[A] ≥ 7.00

[Q] // next record "CC(C)CC(=O)Nc1cnn2c3c(c(=O)n(-c4ccccc4)c12)CCN(C(=O)c1ccc(Cl)c(Cl)c1)C3"
[A] < 5.30
